# IC50 values compiled below
molecular target: Lp-PLA2 in human plasma (Homo sapiens, UniProt Q13093); construct: from tissue; host or cells: pooled human plasma; test: Lp-PLA2 human plasma assay (Thio-PAF assay); assay type: biochemical; conditions: pooled human plasma; read-out: pIC50 values in the thio-PAF assay (converted)
Sequence (Q13093 22-441): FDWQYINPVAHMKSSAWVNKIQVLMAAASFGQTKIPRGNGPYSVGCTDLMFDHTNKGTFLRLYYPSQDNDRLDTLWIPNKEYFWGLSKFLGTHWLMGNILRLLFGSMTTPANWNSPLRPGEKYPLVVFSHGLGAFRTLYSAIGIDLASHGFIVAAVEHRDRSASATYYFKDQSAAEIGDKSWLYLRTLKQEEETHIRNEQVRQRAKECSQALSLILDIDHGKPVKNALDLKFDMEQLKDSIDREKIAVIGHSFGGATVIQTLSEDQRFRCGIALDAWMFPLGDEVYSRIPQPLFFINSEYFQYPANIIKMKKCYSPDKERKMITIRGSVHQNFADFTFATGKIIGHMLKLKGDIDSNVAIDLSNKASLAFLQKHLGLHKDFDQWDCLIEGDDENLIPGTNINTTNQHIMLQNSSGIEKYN

Example cases with answers are listed next.
CN1c2cc(OCc3cccc(F)c3F)nc(=O)n2CCC1(C)C
≤ 0.1 µM
C[C@@H]1CCn2c(cc(OCc3cc(F)c(F)c(F)c3)nc2=O)N1C
≤ 0.1 µM
C[C@@H]1CCn2c(cc(OCc3ccc(Oc4ccc(F)c(Cl)c4)c(C#N)c3)nc2=O)N1C
≤ 0.1 µM

Recorded IC50 of C[C@H]1CCn2c(cc(OCc3ccc(Oc4ccc(C(F)(F)F)nc4)c(C#N)c3)nc2=O)N1C , please.
≤ 0.1 µM

// lookup IC50 for C[C@H]1CCn2c(cc(OCc3cc(F)c(F)c(F)c3)nc2=O)N1C
≤ 0.1 µM

Suppose we examine the compound C[C@@H]1CCn2c(cc(OCc3ccc(Oc4ccc(C(F)(F)F)c(F)c4)cc3)nc2=O)N1C ; what IC50 value has been reported?
≤ 0.1 µM

For CC1CCn2c(cc(OCc3ccc(Oc4ccc(Cl)c(F)c4)c(C#N)c3)nc2=O)N1 (stereo not drawn) , what is its reported IC50?
≤ 0.1 µM

Quick one: IC50 of C[C@H]1CCn2c(cc(OCc3ccc(Oc4ccc(F)c(F)c4)c(C#N)c3)nc2=O)N1C ?
≤ 0.01 µM

Item CN1c2cc(OCc3ccc(Oc4ccnc(C(F)(F)F)c4)c(F)c3)nc(=O)n2CCC1(C)C has what recorded IC50?
≤ 0.01 µM

// data source = patent US20150344485A1
